This collection of values is drawn from PubChem BioAssay (NCI).

Tested on: T-47D breast
testDetails: NCI-60 one-dose screen, 48 h
experimentalParameters: 10 µM
About 83,000 compounds went through this panel and 20% of them were active in at least one assay; those are over-represented in the sample as a whole. The source made the active and inactive calls. Rule for the calls: active = growth percent below 10; inactive = the rest.
// classify into Y (active), N (inactive)

chemSmiles: Cc1ccc(F)cc1N/C=c1\s/c(=C(\C#N)C(=O)Nc2ccccc2)n(-c2ccccc2)c1=O
systemUnderTest: T-47D breast
discreteLabel: N
--
chemSmiles: Clc1ccc2c(N/N=C/c3c[nH]c4ccc(Br)cc34)ccnc2c1
systemUnderTest: T-47D breast
discreteLabel: Y
--
chemSmiles: Cc1cc(=O)oc2cc(OCCCCOc3ccc(/C=C/C(=O)Nc4ccc(F)c(Cl)c4)cc3)ccc12
systemUnderTest: T-47D breast
discreteLabel: N

How did this test come out for Cc1ccc(-c2cc(C(=O)N=Nc3c(O)[nH]c4ccc(Br)cc34)c3ccccc3n2)cc1 ?
N
